Test Protocol: Plasma protein binding in rat assessed as unbound fraction by equilibrium dialysis
Format: ADME, cell-free
Quantity: fraction unbound
One number for each entry.

Request: Can you share its fraction unbound? I mean this compound: CC(=O)N1Cc2cc(S(C)(=O)=O)ccc2[C@@H]1C(=O)Nc1ccc(C(O)(C(F)(F)F)C(F)(F)F)cc1
Response: 0.23

====

Test Protocol: Metabolic stability in dog hepatocytes assessed as intrinsic clearance measured per 10^6 cells
Assay type: ADME, cell-based, Canis lupus familiaris, Hepatocyte
Conditions Used: read-out: CLH
Quantity: hepatocyte CLint

Request: Can you share its hepatocyte CLint? I mean this compound: CC(=O)N1Cc2cc(S(C)(=O)=O)ccc2[C@@H]1C(=O)Nc1ccc(C(O)(C(F)(F)F)C(F)(F)F)cc1
Response: < 1 µL/min/1e6 cells

====

Test Protocol: Oral bioavailability in C57BL/6 mouse at 2 mg/kg using amorphous form of sample
Format: ADME, organism-based
Conditions Used: in vivo
Quantity: bioavailability (%)
Give bare numbers, in %.

Request: Can you share its bioavailability? I mean this compound: CC(=O)N1Cc2cc(S(C)(=O)=O)ccc2[C@@H]1C(=O)Nc1ccc(C(O)(C(F)(F)F)C(F)(F)F)cc1
Response: 67

====

Test Protocol: Fraction absorbed in Han Wistar rat at 1 mg/kg, po using amorphous form of sample
Assay type: ADME, organism-based
Conditions Used: in vivo, read-out: Fabs
Quantity: Fa (%)
Numbers only, in %.

Request: Can you share its Fa? I mean this compound: CC(=O)N1Cc2cc(S(C)(=O)=O)ccc2[C@@H]1C(=O)Nc1ccc(C(O)(C(F)(F)F)C(F)(F)F)cc1
Response: 41

====

Test Protocol: Oral bioavailability in Han Wistar rat at 1 mg/kg using amorphous form of sample
Assay type: ADME, organism-based
Conditions Used: in vivo
Quantity: bioavailability (%)
Answers are plain numbers, in %.

Request: Can you share its bioavailability? I mean this compound: CC(=O)N1Cc2cc(S(C)(=O)=O)ccc2[C@@H]1C(=O)Nc1ccc(C(O)(C(F)(F)F)C(F)(F)F)cc1
Response: 34

====

Test Protocol: Intrinsic permeability of compound from apical to basolateral side in human Caco2 cells
Type: ADME, cell-based
Conditions Used: Caco-2
Quantity: Pm

// below: answered molecules
INSERT INTO results (molecule, quantity, observed_result) VALUES
  ('CCS(=O)(=O)c1ccc(C(NC(C)=O)C(=O)Nc2ccc(C(O)(C(F)(F)F)C(F)(F)F)cc2)nc1 (centres undefined)', 'Pm', 7.7),
  ('CCS(=O)(=O)c1ccc(C(CC(=O)N(C)C)C(=O)Nc2ccc(C(O)(C(F)(F)F)C(F)(F)F)cc2)cc1 (centres undefined)', 'Pm', 24),
  ('CCS(=O)(=O)c1ccc(C(Cn2cccn2)C(=O)Nc2ccc(C(O)(C(F)(F)F)C(F)(F)F)cc2)cc1 (centres undefined)', 'Pm', 44);

Request: Can you share its Pm? I mean this molecule: CCS(=O)(=O)c1ccc(C(CC(=O)NC)C(=O)Nc2ccc(C(O)(C(F)(F)F)C(F)(F)F)cc2)cc1 (centres undefined)
Response: 8

====

Test Protocol: Total plasma clearance in C57BL/6 mouse at 1 mg/kg, iv
Format: ADME, organism-based
Quantity: clearance (mL/min/kg)
One number for each entry, in mL/min/kg.

Request: Can you share its clearance? I mean this molecule: CC(=O)N1Cc2cc(S(C)(=O)=O)ccc2[C@@H]1C(=O)Nc1ccc(C(O)(C(F)(F)F)C(F)(F)F)cc1
Response: 10.5

====

Test Protocol: Fraction absorbed in Han Wistar rat at 50 mg/kg, po using crystaline form of sample
Type: ADME, organism-based
Conditions Used: in vivo, read-out: Fabs
Quantity: Fa (%)
Answers are plain numbers, in %.

Request: Can you share its Fa? I mean this molecule: CC(=O)N1Cc2cc(S(C)(=O)=O)ccc2[C@@H]1C(=O)Nc1ccc(C(O)(C(F)(F)F)C(F)(F)F)cc1
Response: 6

====

Test Protocol: Total plasma clearance in Beagle dog at 1 mg/kg, iv
Assay type: ADME, organism-based, Canis lupus familiaris
Quantity: clearance (mL/min/kg)
One number for each entry, in mL/min/kg.

Request: Can you share its clearance? I mean this compound: CC(=O)N1Cc2cc(S(C)(=O)=O)ccc2[C@@H]1C(=O)Nc1ccc(C(O)(C(F)(F)F)C(F)(F)F)cc1
Response: 1.9

====

Test Protocol: Fraction absorbed in Beagle dog at 10 mg/kg, po using crystaline form of sample
Format: ADME, organism-based, Canis lupus familiaris
Conditions Used: in vivo, read-out: Fabs
Quantity: Fa (%)
Answers are plain numbers, in %.

Request: Can you share its Fa? I mean this compound: CC(=O)N1Cc2cc(S(C)(=O)=O)ccc2[C@@H]1C(=O)Nc1ccc(C(O)(C(F)(F)F)C(F)(F)F)cc1
Response: 52

====

Test Protocol: Volume of distribution at steady state in C57BL/6 mouse at 1 mg/kg, iv
Assay type: ADME, organism-based
Conditions Used: in vivo, read-out: Vdss
Quantity: Vd (L/kg)
Answers are plain numbers, in L/kg.

Request: Can you share its Vd? I mean this compound: CC(=O)N1Cc2cc(S(C)(=O)=O)ccc2[C@@H]1C(=O)Nc1ccc(C(O)(C(F)(F)F)C(F)(F)F)cc1
Response: 1.3

====

Test Protocol: Metabolic stability in mouse hepatocytes assessed as intrinsic clearance measured per 10^6 cells
Assay type: ADME, cell-based, Hepatocyte
Conditions Used: read-out: CLH
Quantity: hepatocyte CLint (µL/min/1e6 cells)
Numbers only, in µL/min/1e6 cells.

Request: Can you share its hepatocyte CLint? I mean this molecule: CC(=O)N1Cc2cc(S(C)(=O)=O)ccc2[C@@H]1C(=O)Nc1ccc(C(O)(C(F)(F)F)C(F)(F)F)cc1
Response: 2.3

====

System: Voltage-gated inwardly rectifying potassium channel KCNH2 (Homo sapiens)
Sequence (Q12809 whole entry): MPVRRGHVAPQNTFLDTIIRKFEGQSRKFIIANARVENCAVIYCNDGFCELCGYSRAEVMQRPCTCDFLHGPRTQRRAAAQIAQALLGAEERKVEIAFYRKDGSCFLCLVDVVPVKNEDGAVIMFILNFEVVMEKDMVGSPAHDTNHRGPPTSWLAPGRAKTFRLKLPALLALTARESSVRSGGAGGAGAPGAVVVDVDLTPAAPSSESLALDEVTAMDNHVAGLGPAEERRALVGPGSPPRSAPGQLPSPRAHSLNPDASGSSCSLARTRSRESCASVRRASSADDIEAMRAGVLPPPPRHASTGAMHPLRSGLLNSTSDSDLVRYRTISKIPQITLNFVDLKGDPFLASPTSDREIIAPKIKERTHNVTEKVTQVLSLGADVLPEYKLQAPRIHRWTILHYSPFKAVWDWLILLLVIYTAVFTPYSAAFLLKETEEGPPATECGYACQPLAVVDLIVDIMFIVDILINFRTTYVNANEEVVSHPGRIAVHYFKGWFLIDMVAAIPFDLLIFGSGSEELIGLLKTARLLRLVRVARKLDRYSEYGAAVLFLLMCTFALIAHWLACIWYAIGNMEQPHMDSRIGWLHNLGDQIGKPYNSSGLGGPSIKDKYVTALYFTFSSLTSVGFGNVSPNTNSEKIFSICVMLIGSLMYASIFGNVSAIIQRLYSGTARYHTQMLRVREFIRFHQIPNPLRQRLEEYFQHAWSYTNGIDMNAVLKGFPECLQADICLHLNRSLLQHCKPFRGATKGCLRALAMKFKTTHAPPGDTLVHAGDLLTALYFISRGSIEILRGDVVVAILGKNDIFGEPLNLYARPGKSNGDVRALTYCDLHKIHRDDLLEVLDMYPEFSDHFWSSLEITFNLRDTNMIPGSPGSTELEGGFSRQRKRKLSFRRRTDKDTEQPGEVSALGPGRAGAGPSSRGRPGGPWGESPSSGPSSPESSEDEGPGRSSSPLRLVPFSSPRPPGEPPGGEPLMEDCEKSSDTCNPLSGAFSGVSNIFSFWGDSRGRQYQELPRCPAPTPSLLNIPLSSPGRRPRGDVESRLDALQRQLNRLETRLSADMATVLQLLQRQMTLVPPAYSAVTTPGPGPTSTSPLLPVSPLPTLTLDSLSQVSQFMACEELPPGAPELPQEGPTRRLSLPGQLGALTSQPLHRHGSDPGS
pIC50: −log10 of the molar value.
Response key: satisfied means pIC50 >= 5; not satisfied means pIC50 < 5.

INSERT INTO assay_data (compound, category) VALUES
  ('CCS(=O)(=O)c1ccc(C(Cn2cccn2)C(=O)Nc2ccc(C(O)(C(F)(F)F)C(F)(F)F)cc2)cc1 (stereo not drawn)', 'satisfied');

Request: Hi, just wondering whether CCS(=O)(=O)c1ccc(C(NC(=O)CC2CC2)C(=O)Nc2ccc(C(O)(C(F)(F)F)C(F)(F)F)cc2)nc1 (stereo not drawn) shows pIC50 of 5 or higher.
Response: not satisfied

Request: Hi, just wondering whether CCS(=O)(=O)c1ccc(C(NC(=O)Cc2ccccn2)C(=O)Nc2ccc(C(O)(C(F)(F)F)C(F)(F)F)cc2)nc1 (stereo not drawn) shows pIC50 of 5 or higher.
Response: satisfied

Request: Hi, just wondering whether CCS(=O)(=O)c1ccc([C@@H](CC(=O)NC)C(=O)Nc2ccc(C(O)(C(F)(F)F)C(F)(F)F)cc2)cc1 shows pIC50 of 5 or higher.
Response: not satisfied

Request: Hi, just wondering whether CCS(=O)(=O)c1ccc(C(NC(=O)Cc2ccccc2)C(=O)Nc2ccc(C(O)(C(F)(F)F)C(F)(F)F)cc2)nc1 (stereo not drawn) shows pIC50 of 5 or higher.
Response: not satisfied

Request: Hi, just wondering whether CCS(=O)(=O)c1ccc(C(NC(=O)Cc2nccs2)C(=O)Nc2ccc(C(O)(C(F)(F)F)C(F)(F)F)cc2)nc1 (stereo not drawn) shows pIC50 of 5 or higher.
Response: satisfied

Request: Hi, just wondering whether CCS(=O)(=O)c1ccc([C@H](CC(=O)NC)C(=O)Nc2ccc(C(O)(C(F)(F)F)C(F)(F)F)cc2)cc1 shows pIC50 of 5 or higher.
Response: not satisfied

====

For each of the compounds below, state its microsomal CLint.
Test Protocol: in vitro
Conditions Used: human, liver microsomes

// below: answered compounds
INSERT INTO results (compound, observed_result) VALUES
  ('CCS(=O)(=O)c1ccc(C(NC(C)=O)C(=O)Nc2ccc(C(O)(C(F)(F)F)C(F)(F)F)cc2)nc1 (stereo not drawn)', '< 3 µL/min/mg'),
  ('CCS(=O)(=O)c1ccc(C(CC(=O)NC)C(=O)Nc2ccc(C(O)(C(F)(F)F)C(F)(F)F)cc2)cc1 (stereo not drawn)', '< 3 µL/min/mg');

Please state microsomal CLint for every compound in the list that follows.
1. CCS(=O)(=O)c1ccc(C(NC(=O)CC2CC2)C(=O)Nc2ccc(C(O)(C(F)(F)F)C(F)(F)F)cc2)nc1 (stereo not drawn)
2. CC(=O)N1Cc2cc(S(C)(=O)=O)ccc2[C@@H]1C(=O)Nc1ccc(C(O)(C(F)(F)F)C(F)(F)F)cc1
3. CCS(=O)(=O)c1ccc(C(CC(=O)N(C)C)C(=O)Nc2ccc(C(O)(C(F)(F)F)C(F)(F)F)cc2)cc1 (stereo not drawn)
4. CC(=O)N1Cc2cc(S(C)(=O)=O)ccc2[C@H]1C(=O)Nc1ccc(C(O)(C(F)(F)F)C(F)(F)F)cc1
5. CCS(=O)(=O)c1ccc(C(NC(=O)Cc2nccs2)C(=O)Nc2ccc(C(O)(C(F)(F)F)C(F)(F)F)cc2)nc1 (stereo not drawn)
6. CC(=O)N1CCc2cc(S(C)(=O)=O)ccc2C1C(=O)Nc1ccc(C(O)(C(F)(F)F)C(F)(F)F)cc1 (racemic)

Response:
22 µL/min/mg
< 3 µL/min/mg
5 µL/min/mg
< 3 µL/min/mg
16 µL/min/mg
< 3 µL/min/mg
